Task for the reader: assign each of the following binders its reported kon.
- Target or test system: T1, AAV5
- T1 construct: also called adeno-associated virus serotype 5
- Procedure text: SPR, AAV on CM5 chip;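 further: surface plasmon resonance with AAV amine-coupled to the chip as ligand, nanobodies injected as analyte over a concentration series, rate constants and affinity fitted from binding curves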
Give bare numbers, in M⁻¹ s⁻¹.

// solved cases for kon follow
| Binder | Readout units | Value observed |
| --- | --- | --- |
| A4-006 (VHH) VHH: VQLQESGGGLVQPGGSLRLSCAASGRHFSINTMGWYRQAPGKQRELVAAVTRGGSTNYAGSVKGRFTISRDNAKNTVYLQMNSLRPEDTAVYYCHIDEVRQSSWTTSNIWGQGTQVTVSS | M⁻¹ s⁻¹ | 179000 |
| A4-034 (VHH) VHH: VQLQESGGGLVQPGGSLRLSCAASGRGFSINTMGWYRQAPGKQRELVAAVTRGGTTNYADSVKGRFTISRDNAKNTVYLQMNSLRPEDTAVYYCHVDEVRQSSWTTSNLWGQGTQVTVSS | M⁻¹ s⁻¹ | 17200 |
| A4-020 (VHH) VHH: VQLQESGGGLVQAGGSLRLSCAASGSTFSINTMGWYRQAPGKQRELVATITRGGNTNYADSVKGRFTISRDNAKNTVYLQMNSLRPEDTAVYYCHVDEVRQSSWTTSNLWGQGTQVTVSS | M⁻¹ s⁻¹ | 5550 |

Query binder follows.
Exam item: Fill in the blank: the reported kon of A4-029 (VHH) VHH: VQLQESGGGLVQPGGSLRLSCAASGSNFSINTMGWYRQRAGKQRELVATVTRGGSTNYADSVKGRFTISRDNAKNTVYLQMNSLRPEDTAVYYCHIDEIRESSWTTSNLWGQGTQVTVSS is ____.
Marked response: 16700
